I'd appreciate it if you could supply IC50 values for the items below.
Biological target: FL hMALT1 enzyme (Homo sapiens)
Sequence (Q9UDY8 1-824): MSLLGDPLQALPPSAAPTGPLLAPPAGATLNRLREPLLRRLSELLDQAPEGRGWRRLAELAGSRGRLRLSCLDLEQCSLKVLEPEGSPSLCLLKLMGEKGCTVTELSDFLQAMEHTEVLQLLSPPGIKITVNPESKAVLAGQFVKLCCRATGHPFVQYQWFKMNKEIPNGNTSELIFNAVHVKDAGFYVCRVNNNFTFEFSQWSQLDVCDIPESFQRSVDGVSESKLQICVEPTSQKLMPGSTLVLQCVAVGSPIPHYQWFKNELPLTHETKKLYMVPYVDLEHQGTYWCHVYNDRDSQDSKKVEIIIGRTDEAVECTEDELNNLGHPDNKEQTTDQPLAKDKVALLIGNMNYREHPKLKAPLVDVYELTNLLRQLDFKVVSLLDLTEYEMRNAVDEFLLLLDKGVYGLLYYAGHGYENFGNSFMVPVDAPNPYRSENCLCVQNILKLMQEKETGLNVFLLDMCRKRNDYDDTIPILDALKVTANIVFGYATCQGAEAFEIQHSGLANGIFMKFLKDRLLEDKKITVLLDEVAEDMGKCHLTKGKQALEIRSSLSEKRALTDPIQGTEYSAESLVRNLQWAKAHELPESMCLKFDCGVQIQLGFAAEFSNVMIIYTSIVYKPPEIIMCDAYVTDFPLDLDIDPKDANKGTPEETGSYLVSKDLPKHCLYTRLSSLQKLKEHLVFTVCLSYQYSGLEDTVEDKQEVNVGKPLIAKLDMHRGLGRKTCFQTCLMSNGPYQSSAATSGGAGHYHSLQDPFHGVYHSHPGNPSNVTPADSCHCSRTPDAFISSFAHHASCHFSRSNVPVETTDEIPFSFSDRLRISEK
Assay: biochemical
Numbers only, in nM.

1. CN(C(=O)C1CC2(CNC(=O)OC2)C1)[C@@H](c1ccc(NC2Cc3ccccc3C2(C)C)nc1)C(F)(F)F (single isomer, unassigned) [Example 175]; 54
2. CN(C(=O)C1CCS(=O)(=O)CC1)[C@@H](c1ccc(NC2Cc3ccc(F)cc3C2)cn1)C(F)(F)F (single isomer, unassigned) [Example 258]; 4500
3. CN(C(=O)C1CNC(=O)CO1)[C@@H](c1ccc(NC2Cc3ccccc3C2(C)C)cn1)C(F)(F)F (single isomer, unassigned) [Example 136]; 36
4. CNC(=O)N1CC(C(=O)N(C)[C@@H](c2ccc(NC3Cc4ccccc4C3(C)C)cc2)C(F)(F)F)C1 (single isomer, unassigned) [Example 74]; 18

Record IC50 per entry; entries follow.
1. CCN(C(=O)C1CCS(=O)(=O)CC1)[C@@H](c1ccc(NC2Cc3ccccc3C2(C)C)cn1)C(F)(F)F (single isomer, unassigned) [Example 188]
2. CN(C(=O)C1CC2(CCC(=O)N2)C1)[C@@H](c1ccc(NC2Cc3ccc(Cl)c(Cl)c3C2)cn1)C(F)(F)F (single isomer, unassigned) [Example 343]

1. 47
2. 77

* * *

Molecular target: MALT1-GS-Ub (6-His-hMALT-1 residues 339-715 fused to ubiquitin) (Homo sapiens, UniProt Q9UDY8)
I'd appreciate it if you could supply IC50 values for the items below.
One number for each entry, in µM.

1. COC1c2ccccc2CC1Nc1ccc([C@H](N(C)C(=O)C2CCS(=O)(=O)CC2)C(F)(F)F)cc1 (stereo in doubt); 3.89
2. CN(C(=O)c1cnco1)[C@@H](c1ccc(NC2Cc3ccccc3C2(C)C)cc1)C(F)(F)F (single isomer, unassigned); 0.14
3. CN(C(=O)C1CCS(=O)(=O)CC1)[C@@H](c1ccc(NC2Cc3ccccc3C2(C)C)cc1)C(F)(F)F (single isomer, unassigned); 0.14
4. CC1c2ccccc2CC1Nc1ccc([C@H](N(C)C(=O)C2CCS(=O)(=O)CC2)C(F)(F)F)cc1 (stereo in doubt); 0.24

State, in one line, measured IC50 of CC(=O)NCCC(=O)N(C)[C@@H](c1ccc(NC2Cc3ccccc3C2(C)C)cc1)C(F)(F)F (single isomer, unassigned) 0.16

* * *

Molecular target: FL hMALT1 enzyme (Homo sapiens, UniProt Q9UDY8)
Experiment: biochemical
readoutKind: pIC50
One number for each entry, as −log10 of the molar value.

Here's what some known entries look like.
1) CN(C(=O)C1CCS(=O)(=O)CC1)[C@@H](c1ccc(NC2Cc3ccc(Cl)cc3C2)cc1)C(F)(F)F (single isomer, unassigned) [Example 56]; 7.85
2) CN(C(=O)C1CCS(=O)(=O)CC1)[C@@H](c1ccc(NC2Cc3ccc(Cl)cc3C2(C)C)cc1)C(F)(F)F (single isomer, unassigned) [Example 151]; 8.40
3) CN(C(=O)C1CCS(=O)(=O)CC1)[C@@H](c1ccc(NC2Cc3cc(F)c(Br)cc3C2)cn1)C(F)(F)F (stereo partly drawn) [Example 310]; 6.37
4) CN(C(=O)CN1CCCC1=O)[C@@H](c1ccc(NC2Cc3ccccc3C2(C)C)cc1)C(F)(F)F (single isomer, unassigned) [Example 46]; 7.18

Record pIC50 per entry; entries follow.
1. CCc1cccc2c1CC(Nc1ccc([C@H](N(C)C(=O)C3CCS(=O)(=O)CC3)C(F)(F)F)nc1)C2 (single isomer, unassigned) [Example 198]
2. CN(C(=O)C1CCS(=O)(=O)CC1)[C@@H](c1ccc(NC2Cc3ccc(F)c(F)c3C2)cn1)C(F)(F)F (single isomer, unassigned) [Example 262]
3. CC1c2ccccc2CC1Nc1ccc(C(N(C)C(=O)C2CCS(=O)(=O)CC2)C(F)(F)F)cc1 (mixture of isomers) [Example 8]
4. CN(C(=O)c1cc[nH]c(=O)c1)C(c1ccc(NC2Cc3ccccc3C2(C)C)cn1)C(F)(F)F (single isomer, unassigned) [Example 96]
5. CN(C(=O)C1CNC(=O)CO1)[C@@H](c1ccc(NC2Cc3ccccc3C2(C)C)cn1)C(F)(F)F (single isomer, unassigned) [Example 135]
6. CN(C(=O)C1CCS(=O)(=O)CC1)[C@@H](c1ccc(NC2Cc3ccc(Cl)cc3C2)cc1)C(F)(F)F (single isomer, unassigned) [Example 55]
7. CN(C(=O)C1CCS(=O)(=O)CC1)[C@@H](c1ccc(NC2Cc3ccc(Cl)c(C(F)(F)F)c3C2)cn1)C(F)(F)F (single isomer, unassigned) [Example 312]

[7.11, 5.57, 7.41, 6.89, 6.35, 6.66, 7.82]

* * *

Target: MALT1-GS-Ub (6-His-hMALT-1 residues 339-715 fused to ubiquitin) (Homo sapiens, UniProt Q9UDY8);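 note: in vitro MALT1 protease assay: enzyme preincubated with compound 30 min at room temperature, then cleavage of fluorogenic Ac-LVSR-AMC substrate (100 µM) followed by fluorescence every 15 min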
Assay: biochemical
I'd appreciate it if you could supply IC50 values for the items below.
Numbers only, in nM.

Here's what some known entries look like.
1) CN(C(=O)C1CCS(=O)(=O)CC1)[C@@H](c1ccc(NC2Cc3ccccc3C2)cn1)C(F)(F)F (single isomer, unassigned) [Example 71]; 330
2) CN(C(=O)N1CCS(=O)(=O)CC1)[C@@H](c1ccc(NC2Cc3ccccc3C2(C)C)cc1)C(F)(F)F (single isomer, unassigned) [Example 14]; 220
3) COCCC(=O)N(C)[C@@H](c1ccc(NC2Cc3ccccc3C2(C)C)cc1)C(F)(F)F (single isomer, unassigned) [Example 32]; 200

Then there is this compound:
State, in one line, measured IC50 of CC(=O)NCCC(=O)N(C)[C@@H](c1ccc(NC2Cc3ccccc3C2(C)C)cc1)C(F)(F)F (single isomer, unassigned) [Example 24] 160

* * *

Molecular target: FL hMALT1 enzyme (Homo sapiens, UniProt Q9UDY8)
Assay: biochemical
readoutKind: pIC50
One number for each entry, as −log10 of the molar value.

1) CN(C(=O)C1CCS(=O)(=O)CC1)[C@@H](c1ccc(NC2Cc3cc(F)c(F)c(F)c3C2)cn1)C(F)(F)F (single isomer, unassigned) [Example 295]; 5.72
2) CN(C(=O)[C@H]1CNC(=O)C1)[C@@H](c1ccc(NC2Cc3ccc(Cl)c(F)c3C2)nc1)C(F)(F)F (single isomer, unassigned) [Example 338]; 6.02
3) CN(C(=O)[C@@H]1CNC(=O)C1)[C@@H](c1ccc(NC2Cc3ccc(Cl)c(C4CC4)c3C2)cn1)C(F)(F)F (single isomer, unassigned) [Example 327]; 6.24
4) CN(C(=O)C1CC2(CNC2)C1)[C@@H](c1ccc(N[C@H]2Cc3ccccc3C2(C)C)cn1)C(F)(F)F [Example 173]; 6.89

Record pIC50 per entry; entries follow.
1. CN(C(=O)C1CCS(=O)(=O)CC1)[C@@H](c1ccc(N[C@H]2Cc3ccc(Cl)cc3C2)cn1)C(F)(F)F (single isomer, unassigned) [Example 199]
2. CN(C(=O)[C@H]1C[C@@H](O)C1)[C@@H](c1ccc(NC2Cc3ccc(Cl)c(F)c3C2)cn1)C(F)(F)F (single isomer, unassigned) [Example 383]

7.14
5.80

* * *

Molecular target: FL hMALT1 enzyme (Homo sapiens);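 note: Cell-free protease assay: enzyme preincubated with compound 30 min at room temperature, then cleavage of fluorogenic Ac-LVSR-AMC substrate (100 µM) tracked by fluorescence (ex 360/em 460 nm)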
Experiment: biochemical
pIC50: −log10 of the molar value.
# label = condition met if pIC50 >= 6 else condition not met

Past entries and their recorded results:
1) CN(C(=O)CO)[C@@H](c1ccc(NC2Cc3ccccc3C2(C)C)cc1)C(F)(F)F (single isomer, unassigned); condition met
2) CC(=O)N1CCC[C@@H]1C(=O)N(C)[C@@H](c1ccc(N[C@H]2Cc3ccccc3C2(C)C)cn1)C(F)(F)F; condition met
3) CN(C(=O)N1CCC(O)CC1)[C@@H](c1ccc(NC2Cc3ccccc3C2(C)C)cc1)C(F)(F)F (single isomer, unassigned) [Example 22]; condition met
4) CN(C(=O)C1CCS(=O)(=O)CC1)[C@@H](c1ccc(NC2Cc3ccc(Cl)cc3C2)nc1)C(F)(F)F (single isomer, unassigned) [Example 288]; condition not met

Check this compound for pIC50 at or above 6: CN(C(=O)C1CCS(=O)(=O)CC1)[C@@H](c1ccc(NC2Cc3ccc(Cl)c(F)c3C2)cn1)C(F)(F)F (single isomer, unassigned) [Example 277] condition met

Reference for the values: patent US20260184687A1
